Source listed as the kinase profiling compilation of Christmann-Franck et al. (2016).

Molecular target: TGFBR1 (human)
Test: radiometric filter-binding kinase assay, Kinase HotSpot
Settings: compound 0.5 µM; ATP 10 µM
Property name: residual activity (%)

> print(dat)
                            chemical.string  number
1  COc1cc2ncnc(Nc3ccc(OCc4ccccc4)cc3)c2cc1OC    95.7
2    COc1ccc(Cl)cc1NC(=O)Nc1cc(C)nc2ccccc12    99.1
3  O=C(c1cc2cc(O)ccc2[nH]1)c1cc2cc(O)ccc2[nH]1    93.4
4  COc1cc(Nc2c(C#N)cnc3cc(OCCCN4CCN(C)CC4)c(OC)cc23)c(Cl)cc1Cl      99
5  NC(=O)c1cccc(-c2cc(Nc3ccc(OC(F)(F)F)cc3)ncn2)c1     103
6  CN(C)CCCn1cc(C2=C(c3c[nH]c4ccccc34)C(=O)NC2=O)c2ccccc21     102
7  N#Cc1c[nH]c2c[nH]/c(=N\Cc3cccnc3)cc2/c1=N\c1ccc(F)c(Cl)c1    99.6
8      CN(C)c1ccc(/C=C2\C(=O)Nc3ccccc32)cc1    96.7
9  COc1ccc(S(=O)(=O)N(CCO)c2ccccc2CN(C)C/C=C/c2ccc(Cl)cc2)cc1     101
